Molecular target: NP of A/California/07/2009(H1N1/H1S) (influenza A virus, NYMC X-181 derived …)
Sequence (P03466 whole entry): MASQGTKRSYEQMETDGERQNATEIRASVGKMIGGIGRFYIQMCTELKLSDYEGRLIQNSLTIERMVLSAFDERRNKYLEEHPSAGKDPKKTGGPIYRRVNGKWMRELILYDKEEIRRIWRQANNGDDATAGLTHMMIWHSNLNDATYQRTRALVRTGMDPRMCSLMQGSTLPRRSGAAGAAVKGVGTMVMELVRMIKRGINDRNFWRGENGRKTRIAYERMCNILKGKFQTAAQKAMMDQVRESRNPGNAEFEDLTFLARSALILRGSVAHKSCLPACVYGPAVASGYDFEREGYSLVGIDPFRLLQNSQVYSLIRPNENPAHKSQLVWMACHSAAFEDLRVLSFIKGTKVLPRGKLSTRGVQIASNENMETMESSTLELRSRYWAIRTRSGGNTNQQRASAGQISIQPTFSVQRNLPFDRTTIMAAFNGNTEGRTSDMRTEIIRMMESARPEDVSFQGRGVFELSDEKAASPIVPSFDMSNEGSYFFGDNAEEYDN
Experiment: ELISA on virus-infected fixed MDCK cells
Quantity measured: pEC50
Give bare numbers, as −log10 of the molar value.

NP14 (antibody, V domains shown) VH: EVQLVESGGGLVQPGGSLRLSCAASGFTIDNGGIHWVRQAPGKGLEWVASIWPSWGSTSYADSVKGRFTISADTSKNTAYLQMNSLRAEDTAVYYCARFNFGVFGVMDYWGQGTLVTVSS VL: DIQMTQSPSSLSASVGDRVTITCRASQDVDNDVAWYQQKPGKAPKLLIYGPRGLYSGVPSRFSGSGSGTDFTLTISSLQPEDFATYYCQQYSSWPLTFGQGTKVEIKR :: 8.46

Each binder below has a recorded value; state its pEC50.
1. NP4 (antibody, V domains shown) VH: EVQLVESGGGLVQPGGSLRLSCAASGFTISNSSIHWVRQAPGKGLEWVAGIGPSGGYTFYADSVKGRFTISADTSKNTAYLQMNSLRAEDTAVYYCARFHSHNSYYSYSHYGYMDYWGQGTLVTVSS VL: DIQMTQSPSSLSASVGDRVTITCRASQDVGWGVAWYQQKPGKAPKLLISGPSSLYSGVPSRFSGSGSGTDFTLTISSLQPEDFATYYCQQYFNYPITFGQGTKVEIKR
2. NP17 (antibody, V domains shown) VH: EVQLVESGGGLVQPGGSLRLSCAASGFTISGGSIHWVRQAPGKGLEWVASIWPFGGSTFYADSVKGRFTISADTSKNTAYLQMNSLRAEDTAVYYCARFGHGHNVIMDYWGQGTLVTVSS VL: DIQMTQSPSSLSASVGDRVTITCRASQDVGYSVAWYQQKPGKAPKLLISSPGGLYSGVPSRFSGSGSGTDFTLTISSLQPEDFATYYCQQYYDYPVTFGQGTKVEIKR

output:
1: 8.40; 2: 7.54
